System: Shionogi mouse mammary carcinoma cells
TEST METHOD NOTES: Antiandrogenic activity: inhibition of DHT-induced proliferation of Shionogi cells
Format: cell-based
SETUP CONDITIONS: Table 4′; DHT-induced proliferation, E^−7
The entries below come with measured Antiandrogenic Activity Shionogi, DHT E^−7 values attached.
Numbers only here, please. The scale is %.

Previously resolved entries follow.
COCCOc1cc2c(cc1C#N)C1CC[C@@]3(C)C(CC[C@@]34CCC(C)(C)C(=O)O4)C1CC2 (stereo partly shown) [EM-1396] :: −16
COC(=O)C1CCC2(CCC3C4CCc5cc(O)ccc5C4CCC32C)OC1=O (stereo not shown) [PB-132-146] :: 14
COCCOc1cc2c(cc1C(=O)OC)C1CC[C@@]3(C)C(CC[C@@]34CCC(C)(C)C(=O)O4)C1CC2 (stereo partly shown) [EM-1402-CS] :: −13
COCCOc1cc2c(cc1C(F)(F)F)[C@H]1CC[C@@]3(C)[C@@H](CC[C@@]34CCC(C)(C)C(=O)O4)[C@@H]1CC2 [EM-1438] :: 0
COc1c(Br)cc2c(c1Br)CCC1C2CCC2(C)C1CCC21CCC(C)(C)C(=O)O1 (stereo not shown) [EM-1385-CS] :: 0
C[C@]12CCC3c4cc([N+](=O)[O-])c(O)cc4CCC3C1CC[C@@]21CCCC(=O)O1 (stereo partly shown) [EM-1124] :: 0
CC1(C)CCC2(CCC3C4CCc5c(cc(Cl)c(OS(C)(=O)=O)c5Cl)C4CCC32C)OC1=O (stereo not shown) [EM-1392-CS] :: 0
CN(C)C(=O)c1cc2c(cc1O)CCC1C2CCC2(C)C1CCC21CCC(C)(C)C(=O)O1 (stereo not shown) [EM-01661-B] :: 3

Query :: What value of measured Antiandrogenic Activity Shionogi, DHT E^−7 is listed for CC1(C)CCC2(CCC3C4CCc5ccccc5C4CCC32C)OC1=O (stereo not shown) [CS-224] ?
Result :: 23

Query :: Try the molecule CCOc1ccc2c(c1)CCC1C2CC[C@@]2(C)C1CC[C@@]21CCC(C)(C)C(=O)O1 (stereo partly shown) [EM-1369]
Result :: 0

Query :: Try COc1cc2c(cc1C(F)(F)F)C1CCC3(C)C(CCC34CCC(C)(C)C(=O)O4)C1CC2 (stereo not shown) [EM-1409] next.
Result :: −5

Query :: What do we get for CC1(C)CCC2(CCC3C4CCc5cc(O)c(C(N)=O)cc5C4CCC32C)OC1=O (stereo not shown) [EM-01660] ?
Result :: −20
